# TESTED_SYSTEM: PBP2 (Pseudomonas aeruginosa, UniProt G3XCV7)
# Construct: gene pbpA; native full-length protein in intact P. aeruginosa PAO1 cells, Bocillin-FL labelled
# Sequence (G3XCV7 1-646): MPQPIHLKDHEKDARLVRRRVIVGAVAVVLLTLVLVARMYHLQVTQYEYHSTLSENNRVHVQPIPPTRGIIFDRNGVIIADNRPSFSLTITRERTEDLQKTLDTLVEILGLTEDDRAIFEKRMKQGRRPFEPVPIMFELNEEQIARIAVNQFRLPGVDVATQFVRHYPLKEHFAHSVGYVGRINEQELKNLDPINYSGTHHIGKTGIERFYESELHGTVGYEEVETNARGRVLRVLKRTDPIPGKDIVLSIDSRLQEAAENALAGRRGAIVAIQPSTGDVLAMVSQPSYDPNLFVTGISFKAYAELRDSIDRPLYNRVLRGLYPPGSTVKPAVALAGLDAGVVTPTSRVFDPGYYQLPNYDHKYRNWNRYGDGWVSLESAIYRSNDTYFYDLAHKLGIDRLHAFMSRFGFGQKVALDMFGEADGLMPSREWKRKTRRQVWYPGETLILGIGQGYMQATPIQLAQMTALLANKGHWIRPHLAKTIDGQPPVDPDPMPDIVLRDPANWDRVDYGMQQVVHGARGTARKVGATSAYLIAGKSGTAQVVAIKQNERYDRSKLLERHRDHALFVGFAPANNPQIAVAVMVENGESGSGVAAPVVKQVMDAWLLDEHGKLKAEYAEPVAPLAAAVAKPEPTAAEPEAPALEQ
# EXPERIMENT: Bocillin-FL competition in whole cells
# Assay type: cell-based
# STATED_CONDITIONS: read-out: Drug mg/L^a / MEC / SUL; intact PAO1 cells, 30 min incubation; covalent
pIC50: −log10 of the molar value.
TEST_READOUT: pIC50

INSERT INTO results (compound, test_readout, measured_number) VALUES
  ('CC1(C)[C@H](C(=O)O)N2C(=O)C[C@H]2S1(=O)=O [sulbactam]', 'pIC50', 4.72),
  ('CC1(C)S[C@@H]2[C@H](N=CN3CCCCCC3)C(=O)N2[C@H]1C(=O)O [mecillinam]', 'pIC50', 3.06);
